meta.source: patent US20240272170A1

- TARGET SYSTEM: T1, VA peptide (Octet assay of PS557 variants)
- T1 construct: Peptide coated on the Octet sensor
- ASSAY EXPLANATION: Octet (BLI), peptide on sensor, response after 200 s association
Listed below: Octet response values for each entry.

BINDER	READOUT UNITS	Octet response
PS962 (designed binder, Variant of PS557) MPTAASATESAIEDTPAPARPEVDGRTKPKRQPRYHVVLWDDDDHTYQYVVVMLRSLFGHPYARGYRLAKEMDTQGRVIVLTTTREHAELKRDQIHAFGRDRLLARSKGSMKASIEAEE	nm	10.7
PS963 (designed binder, Variant of PS557) MPTAASATESAIEDTPAPARPEVDGRTKPKRQPRYHVVLWDDDDHTYQYVVVMLRSLFGHPPARGYRLAKEMDTQGRVIVLTTTREHAELKRDQIHAFGRDRLLARSKGSMKASIEAEE	nm	10.4
